// provenance: PubChem BioAssay (NCI)

test system: A549 NSCLC; test: NCI tumour cell line growth inhibition, 48 h
measured-parameter: TGI

{"columns": ["compound", "TGI"],
 "data": [
  ["c1ccc(-c2nc(-c3ccccn3)nc(-c3ccccn3)n2)nc1", "> 100 µM"]
]}

Input: Return reported TGI; argument: O=C(Nc1cccc(Cl)c1)Nn1cnnc1
Output: > 100 µM

Input: Item under review: CN1N=CSC12C(=O)N(c1ccccc1)C(=O)N2c1ccccc1 (configuration not stated) . Reported TGI?
Output: > 100 µM

----------
Property: TGI; scope: individual compounds
tested on: SNB-75 CNS; assay: NCI tumour cell line growth inhibition, 48 h

Completed entries (count: 2):
{"columns": ["compound", "TGI"],
 "data": [
  ["COc1cc(C2c3c(ccc4ccccc34)C(=O)C3CCC(=O)N32)cc(OC)c1OC (stereo not given)", "> 50 µM"],
  ["N#C[Se]Cc1cc(-c2ccccc2)n(-c2ccc(S(N)(=O)=O)cc2)n1", "3.51 µM"]
]}

Input: Consider the compound O=S(=O)(/N=c1\scc(-c2ccccc2)n1-c1ccccc1)c1ccc(N2N=C3c4ccccc4CC3C2c2ccc(Cl)cc2)cc1 (stereo not given) and give its measured TGI.
Output: > 100 µM

Input: What value of measured TGI is listed for CN1N=CSC12C(=O)N(c1ccccc1)C(=O)N2c1ccccc1 (stereo not given) ?
Output: > 100 µM

Input: Consider the compound CCC1(O)C(=O)OCc2c1cc1n(c2=O)Cc2cc3ccccc3nc2-1 (stereo not given) and give its measured TGI.
Output: 0.19 µM

Input: // lookup TGI for CN(C(=O)/C=C/c1ccccc1)C1C2CN3CCC(O2)C13 (stereo not given)
Output: > 100 µM

Input: I have this compound here, O=C1/C(=C/c2ccc([N+](=O)[O-])cc2)CN(C(=O)CCN2CCC(=NO)CC2)C/C1=C\c1ccc([N+](=O)[O-])cc1 , and I need its recorded TGI.
Output: 9.05 µM

Input: Recorded TGI of CC(N=NNc1ccc(-c2nc3ccccc3[nH]2)cc1)C(=O)O (stereo not given) , please.
Output: > 100 µM

Input: Which TGI value is on record for CC(CO)Nc1cc(-c2[nH]c3cccnc3c2-c2ccc(F)cc2)ccn1 (stereo not given) ?
Output: > 25 µM

Input: Suppose we examine the compound N#CN1C2CCC1CC(=O)C2 ; what TGI value has been reported?
Output: > 100 µM

----------
test system: SNB-19 CNS; experiment: NCI tumour cell line growth inhibition, 48 h
measured-parameter: TGI

{"columns": ["compound", "TGI"],
 "data": [
  ["Cc1c2cnccc2c(C)c2c1c1cc(C#N)ccc1n2C", "1.94 µM"],
  ["Cn1c(=O)c2c(nc3n(CC(O)CCl)c(=O)ccn23)n(C)c1=O (stereo unspecified)", "> 100 µM"],
  ["Cc1ccc2cnc(N)c(C#Cc3cc(C(=O)Nc4ccc(CN5CCN(C)CC5)c(C(F)(F)F)c4)cnc3C)c2c1", "1.89 µM"],
  ["O=C(NCC1CC1)c1ccc(-c2cccc(C(=O)NC3CC3)c2)cc1", "> 25 µM"]
]}

Input: Give TGI (SNB-19 CNS) of the following compound: COC(=O)[C@H]1C=NN[C@@H]1C(=O)N1[C@H]2CC3CC[C@@]2(CS1(=O)=O)C3(C)C
Output: > 100 µM

Input: Query TGI on SNB-19 CNS for N#CC(N)=Nc1ccccc1
Output: > 100 µM

Input: Missing value: TGI, SNB-19 CNS, entry CCN(CCCOc1ccccc1)CCN(CC)CCCOc1ccccc1 . Fill in?
Output: 23.4 µM

Input: GET /values?readout=TGI&system=SNB-19 CNS&item= O=C1[C@H](O)[C@@H]2C(O)O[C@H]3[C@@H]2N1C[C@H]3[Si](c1ccccc1)(c1ccccc1)c1ccccc1 (stereo partly specified)
Output: > 100 µM

Input: Notebook: pull reported TGI for SNB-19 CNS, entry Cc1ccc(C(=N)c2ccccc2Cc2cccc3ccccc23)c2ccccc12
Output: > 100 µM

Input: Test system SNB-19 CNS; read-out TGI; what value for C1=C(c2ccccc2)SC(N2CCCCC2)S1 (stereo unspecified) ?
Output: > 100 µM
